Attribution: patent US9403830B2

Protein target, amino acids: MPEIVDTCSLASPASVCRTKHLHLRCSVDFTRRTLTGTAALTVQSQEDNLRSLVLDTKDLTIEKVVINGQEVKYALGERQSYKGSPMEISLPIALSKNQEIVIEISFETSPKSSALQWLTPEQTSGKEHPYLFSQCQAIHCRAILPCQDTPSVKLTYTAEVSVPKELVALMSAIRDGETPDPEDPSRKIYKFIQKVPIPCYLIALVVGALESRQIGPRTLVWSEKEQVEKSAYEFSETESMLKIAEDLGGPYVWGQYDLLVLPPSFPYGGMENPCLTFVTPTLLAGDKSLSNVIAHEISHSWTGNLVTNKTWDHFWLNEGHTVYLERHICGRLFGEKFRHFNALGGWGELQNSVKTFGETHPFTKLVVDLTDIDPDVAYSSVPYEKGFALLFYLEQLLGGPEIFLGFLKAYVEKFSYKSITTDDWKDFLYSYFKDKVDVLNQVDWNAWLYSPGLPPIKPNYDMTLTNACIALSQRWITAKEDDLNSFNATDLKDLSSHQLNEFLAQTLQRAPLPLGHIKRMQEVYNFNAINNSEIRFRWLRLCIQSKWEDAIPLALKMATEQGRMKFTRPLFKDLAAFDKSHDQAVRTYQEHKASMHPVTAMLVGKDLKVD
pIC50: −log10 of the molar value.
MEASURED_PARAMETER: pIC50

c1cc(-c2ccc(Oc3ccc4ncc(CN5CCOCC5)cc4c3)cc2)[nH]n1; 9.43
O=C1CCCCN1C1CCN(Cc2ccc3cc(Oc4ccc(-c5ccn[nH]5)cn4)ccc3n2)CC1; 9.18

(a) c1cc(-c2ccc(Oc3ccc4c(c3)OC(CN3CCCC3)C4)cc2)[nH]n1 (centres unmarked)
(b) O=C1CC[C@@H](Cn2cc3cc(Oc4ccc(-c5ccn[nH]5)cc4)ccc3n2)N1
(c) COCC1CCN(Cc2nc3cc(Oc4ccc(-c5ccn[nH]5)cc4)ccc3[nH]2)C1 (centres unmarked)
Prompt: Given 3 compounds, produce a descending ranking by pIC50. Please list the labels in the order you were asked to rank them.
Response: a, c, b
